# test target: T1, human FcRn/b2M (human, UniProt P61769 21-119, biotinylated)
# T1 construct: bought recombinant biotinylated protein (ACRO FCM-H82W4 or Immunitrack ITF01); also called hFcRn; hFcRn/hb2M
# experimental protocol: SPR pH 6.0;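 note: surface plasmon resonance kinetics at 25 °C, diluted periplasmic extracts injected over immobilized ligand surfaces, 120 s association then 600–3600 s dissociation, running buffer containing 150 mM NaCl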
measurement type: koff (s⁻¹)

[A] T0263018B11 G54P (VHH, name in Kabat numbering, FLAG3-His6 tagged) VHH: EVQLVESGGGVVQPGGSLRLSCAASGFTFSSYAMYWVRQAPGKGLEWVSAISSGPGSTDYADSVKGRFTISRDNSKNTLYLQMNSLRPEDTALYYCAADTLYTSLTWYSYWGQGTLVTVSS
[B] T0263018B11 L100aM (VHH, name in Kabat numbering, FLAG3-His6 tagged) VHH: EVQLVESGGGVVQPGGSLRLSCAASGFTFSSYAMYWVRQAPGKGLEWVSAISSGGGSTDYADSVKGRFTISRDNSKNTLYLQMNSLRPEDTALYYCAADTLYTSMTWYSYWGQGTLVTVSS
[C] T0263018B11 T28V (VHH, name in Kabat numbering, FLAG3-His6 tagged) VHH: EVQLVESGGGVVQPGGSLRLSCAASGFVFSSYAMYWVRQAPGKGLEWVSAISSGGGSTDYADSVKGRFTISRDNSKNTLYLQMNSLRPEDTALYYCAADTLYTSLTWYSYWGQGTLVTVSS
[D] T0263018B11 Y32F (VHH, name in Kabat numbering, FLAG3-His6 tagged) VHH: EVQLVESGGGVVQPGGSLRLSCAASGFTFSSFAMYWVRQAPGKGLEWVSAISSGGGSTDYADSVKGRFTISRDNSKNTLYLQMNSLRPEDTALYYCAADTLYTSLTWYSYWGQGTLVTVSS
[E] T0263018B11 D58A (VHH, name in Kabat numbering, FLAG3-His6 tagged) VHH: EVQLVESGGGVVQPGGSLRLSCAASGFTFSSYAMYWVRQAPGKGLEWVSAISSGGGSTAYADSVKGRFTISRDNSKNTLYLQMNSLRPEDTALYYCAADTLYTSLTWYSYWGQGTLVTVSS
[Q] Order the records so the highest koff appears first and the lowest last. Please list the labels according to the requested order.
[A] B, E, C, A, D

[1] T0263018B11 G54E (VHH, name in Kabat numbering, FLAG3-His6 tagged) VHH: EVQLVESGGGVVQPGGSLRLSCAASGFTFSSYAMYWVRQAPGKGLEWVSAISSGEGSTDYADSVKGRFTISRDNSKNTLYLQMNSLRPEDTALYYCAADTLYTSLTWYSYWGQGTLVTVSS
[2] T0263018B11 S52V (VHH, name in Kabat numbering, FLAG3-His6 tagged) VHH: EVQLVESGGGVVQPGGSLRLSCAASGFTFSSYAMYWVRQAPGKGLEWVSAIVSGGGSTDYADSVKGRFTISRDNSKNTLYLQMNSLRPEDTALYYCAADTLYTSLTWYSYWGQGTLVTVSS
[Q] Sort 1 and 2 by koff descending and give the first. Give the label under which the chosen entry appears.
[A] 2
(2: 0.0024 s⁻¹, 1: 0.0016 s⁻¹)

FYI, the data here is from patent US20240132624A1.
